Value source: ChEMBL document CHEMBL1145498

Reported ΔTm for target or system Serine/threonine-protein kinase PLK4 (Homo sapiens), by entry.

| molecule | ΔTm |
| --- | --- |
| COc1cc2ncnc(Nc3cccc(O)c3)c2cc1OC | 3.9 °C |
| Cc1ccc(NC(=O)c2cccc(N(C)C)c2)cc1NC(=O)c1ccc(O)cc1 | 0.8 °C |
| O=C1NC(=O)c2c1c1c3ccccc3[nH]c1n1cncc21 [ISOGRANULATIMIDE] | 3.2 °C |
| CC[C@H](CO)Nc1nc(NCc2ccccc2)c2ncn(C(C)C)c2n1 | 0.3 °C |
| COc1ccc2c(c[n+](C)c3c4cc5c(cc4ccc23)OCO5)c1OC [CHELERYTHRINE CHLORIDE] | -3.1 °C |
| CN1CCC(Nc2ncc3ncnc(Nc4ccc(F)c(Cl)c4)c3n2)CC1 | 0.3 °C |
| Cc1nc(N)sc1-c1ccnc(Nc2cccc([N+](=O)[O-])c2)n1 | 2.3 °C |
| O=C1C=C2C(=Nc3c2c2c(c4c3=NC3=C4CCC=C3)C=NC=2)CC1 | 2.3 °C |
| OC[C@H]1O[C@@H](n2cnc3cc(Cl)c(Cl)cc32)[C@H](O)[C@@H]1O | 0.5 °C |
| CC(C)n1cnc2c(NCc3ccccc3O)nc(NCCCO)nc21 | 0.1 °C |
